Assay: self-splicing fitness, log relative to wild type (ln ratio); higher = more splicing; Tetrahymena group I intron in knt gene, E. coli kanamycin selection, DiMSum; sequences stand for … in CUCUCU…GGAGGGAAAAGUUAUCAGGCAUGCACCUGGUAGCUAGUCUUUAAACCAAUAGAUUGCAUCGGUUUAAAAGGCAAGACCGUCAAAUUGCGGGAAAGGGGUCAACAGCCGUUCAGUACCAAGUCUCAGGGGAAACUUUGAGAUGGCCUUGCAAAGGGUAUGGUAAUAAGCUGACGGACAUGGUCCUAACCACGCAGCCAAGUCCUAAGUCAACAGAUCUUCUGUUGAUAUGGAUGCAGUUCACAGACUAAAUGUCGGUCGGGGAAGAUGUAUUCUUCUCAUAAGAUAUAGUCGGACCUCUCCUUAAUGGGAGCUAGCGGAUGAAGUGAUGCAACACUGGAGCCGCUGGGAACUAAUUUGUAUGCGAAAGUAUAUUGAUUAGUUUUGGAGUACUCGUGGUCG;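 note: selection with 25 µg/mL kanamycin versus none on LB agar overnight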
Conditions: 37 °C
Tag: true if measured self-splicing fitness (ln) is not below -0.9, false if it is.

These solved cases illustrate the format of a correct answer.
{"columns": ["sequenceContent", "classification"],
 "data": [
  ["GACUAGCAAUAUUACGUCAU", "false"],
  ["UGCGAGCAAUAUUACGUCGC", "false"],
  ["CUUUAGCAAUAUUACGUGAA", "false"],
  ["CGGGAGCAAUAUUACGUGUG", "true"],
  ["CCCCAGCAAUAUUACGACAU", "false"]
]}

Evaluate `CGGCAGCAAUAUUACGGUAG` : self-splicing fitness (ln) at minimum -0.9?
true
